Target: VEGFR-2 (Homo sapiens)
Experiment: VEGFR-2 kinase inhibition, Caliper screening (fluorescent substrate phosphorylation, electrophoretic separation)
Conditions: concentration 3.0E−08 (unit not given)
Exercise: for every item that follows, state its recorded VEGFR-2 AVG % Activity at Specific Concentration.
Unit % implied. Number only.

Can you look up the measured VEGFR-2 AVG % Activity at Specific Concentration of `COCCOCCOCCOCCOCCOCCOCCNC(=O)c1c(C)[nH]c(/C=C2\C(=O)Nc3ccc(F)cc32)c1C` for me?
90

Same read-out for `COCCOCCOCCNC(=O)c1c(C)[nH]c(/C=C2\C(=O)Nc3ccc(F)cc32)c1C` ?
78

Note, next up: `COCCOCCOCCOCCNC(=O)c1c(C)[nH]c(/C=C2\C(=O)Nc3ccc(F)cc32)c1C`
89

Would you mind doing `COCCOCCOCCOCCOCCOCCOCCOCCOCCNC(=O)c1c(C)[nH]c(/C=C2\C(=O)Nc3ccc(F)cc32)c1C` as well?
71

Continue with `COCCOCCOCCOCCOCCOCCOCCOCCNC(=O)c1c(C)[nH]c(/C=C2\C(=O)Nc3ccc(F)cc32)c1C`
78

###

Biological target: VEGFR-2 (Homo sapiens)
Experiment: VEGFR-2 kinase inhibition, Caliper screening (fluorescent substrate phosphorylation, electrophoretic separation)
Details: concentration 1.0E−08 (unit not given)
Task for the reader: assign each of the following compounds its reported VEGFR-2 AVG % Activity at Specific Concentration.

Recorded VEGFR-2 AVG % Activity at Specific Concentration for `COCCOCCOCCOCCNC(=O)c1c(C)[nH]c(/C=C2\C(=O)Nc3ccc(F)cc32)c1C` , please?
88%

Okay, and `COCCOCCOCCOCCOCCOCCOCCNC(=O)c1c(C)[nH]c(/C=C2\C(=O)Nc3ccc(F)cc32)c1C` ?
95%

What do we get for `COCCOCCOCCNC(=O)c1c(C)[nH]c(/C=C2\C(=O)Nc3ccc(F)cc32)c1C` ?
90%

Same again, this time with `COCCOCCOCCOCCOCCOCCOCCOCCNC(=O)c1c(C)[nH]c(/C=C2\C(=O)Nc3ccc(F)cc32)c1C`
85%

What do you have for `COCCOCCOCCOCCOCCOCCOCCOCCOCCNC(=O)c1c(C)[nH]c(/C=C2\C(=O)Nc3ccc(F)cc32)c1C` ?
77%

###

Target: VEGFR-2 (Homo sapiens, UniProt P35968)
Sequence (P35968 20-1356, species assumed): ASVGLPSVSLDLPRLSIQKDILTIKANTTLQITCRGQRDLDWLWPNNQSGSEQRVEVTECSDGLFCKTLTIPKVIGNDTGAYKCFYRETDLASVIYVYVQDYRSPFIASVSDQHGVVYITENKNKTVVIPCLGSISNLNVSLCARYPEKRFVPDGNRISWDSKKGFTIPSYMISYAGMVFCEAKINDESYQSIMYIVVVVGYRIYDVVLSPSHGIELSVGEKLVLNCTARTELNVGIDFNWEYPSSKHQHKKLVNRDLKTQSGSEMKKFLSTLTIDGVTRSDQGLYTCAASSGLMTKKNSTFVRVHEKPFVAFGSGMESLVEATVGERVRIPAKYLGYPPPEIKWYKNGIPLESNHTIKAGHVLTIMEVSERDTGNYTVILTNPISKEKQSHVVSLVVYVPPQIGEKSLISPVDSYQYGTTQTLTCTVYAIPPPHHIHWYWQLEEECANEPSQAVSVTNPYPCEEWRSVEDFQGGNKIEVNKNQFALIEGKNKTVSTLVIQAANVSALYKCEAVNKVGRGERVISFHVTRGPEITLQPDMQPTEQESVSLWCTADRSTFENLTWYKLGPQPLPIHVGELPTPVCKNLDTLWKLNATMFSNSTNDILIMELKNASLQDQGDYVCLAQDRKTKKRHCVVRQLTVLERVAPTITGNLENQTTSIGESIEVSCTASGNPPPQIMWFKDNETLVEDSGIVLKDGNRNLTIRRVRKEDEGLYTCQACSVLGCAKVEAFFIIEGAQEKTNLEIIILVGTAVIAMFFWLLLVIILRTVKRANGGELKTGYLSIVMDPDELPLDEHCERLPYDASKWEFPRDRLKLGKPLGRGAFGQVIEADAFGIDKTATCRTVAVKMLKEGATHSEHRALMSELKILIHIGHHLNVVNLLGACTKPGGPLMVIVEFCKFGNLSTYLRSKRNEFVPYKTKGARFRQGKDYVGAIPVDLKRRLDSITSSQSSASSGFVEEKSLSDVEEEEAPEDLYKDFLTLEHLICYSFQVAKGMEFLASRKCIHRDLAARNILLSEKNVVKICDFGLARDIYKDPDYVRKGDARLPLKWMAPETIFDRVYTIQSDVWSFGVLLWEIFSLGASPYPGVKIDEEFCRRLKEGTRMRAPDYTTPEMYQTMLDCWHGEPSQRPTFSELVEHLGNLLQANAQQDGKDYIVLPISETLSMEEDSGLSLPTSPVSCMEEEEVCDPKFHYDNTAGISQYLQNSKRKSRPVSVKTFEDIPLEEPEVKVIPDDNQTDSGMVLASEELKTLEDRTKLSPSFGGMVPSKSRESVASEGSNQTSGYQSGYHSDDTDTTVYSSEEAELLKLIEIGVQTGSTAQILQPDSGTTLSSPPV
Kindly supply the reported pIC50 values for the records listed here.
pIC50 field: float, defined as -log10 of concentration (mol/L).

pIC50 for COCCOCCOCCOCCOCCOCCOCCNC(=O)c1c(C)[nH]c(/C=C2\C(=O)Nc3ccc(F)cc32)c1C [mPEG7-semaxanib] ?
6.51

Similarly, COCCOCCOCCNC(=O)c1c(C)[nH]c(/C=C2\C(=O)Nc3ccc(F)cc32)c1C [mPEG3-semaxanib] ?
6.96

###

Target: c-Kit (Homo sapiens)
Assay: c-Kit tyrosine kinase inhibition, Caliper screening (fluorescent substrate phosphorylation, electrophoretic separation)
Type: biochemical
Details: concentration 3.0E−07 (unit not given)
endpoint label: c-Kit AVG % Activity at Specific Concentration

Find c-Kit AVG % Activity at Specific Concentration (c-Kit (Homo sapiens)) for the entry COCCOCCOCCOCCOCCNC(=O)c1c(C)[nH]c(/C=C2\C(=O)Nc3ccc(F)cc32)c1C [mPEG5-semaxanib]
37%

What do you get for COCCOCCOCCOCCOCCOCCOCCOCCOCCNC(=O)c1c(C)[nH]c(/C=C2\C(=O)Nc3ccc(F)cc32)c1C [mPEG9-semaxanib] ?
60%

Same question, COCCOCCOCCOCCNC(=O)c1c(C)[nH]c(/C=C2\C(=O)Nc3ccc(F)cc32)c1C [mPEG4-semaxanib] this time
24%

Entry to check: COCCOCCOCCOCCOCCOCCOCCOCCNC(=O)c1c(C)[nH]c(/C=C2\C(=O)Nc3ccc(F)cc32)c1C [mPEG8-semaxanib]
49%

###

Target: UniProt:P10721
Assay: c-Kit tyrosine kinase inhibition, Caliper screening (fluorescent substrate phosphorylation, electrophoretic separation)
Assay type: biochemical
Settings: concentration 3.0E−07 (unit not given)
Provide the recorded c-Kit AVG % Activity at Specific Concentration for the entries that follow.
Value expressed in %; do not type the unit.

So what does the record say about c-Kit AVG % Activity at Specific Concentration for `COCCOCCOCCOCCOCCOCCNC(=O)c1c(C)[nH]c(/C=C2\C(=O)Nc3ccc(F)cc32)c1C` ?
44

Note, next up: `COCCOCCOCCOCCOCCOCCOCCNC(=O)c1c(C)[nH]c(/C=C2\C(=O)Nc3ccc(F)cc32)c1C`
49

Also `COCCOCCOCCNC(=O)c1c(C)[nH]c(/C=C2\C(=O)Nc3ccc(F)cc32)c1C` ?
16

###

Target: VEGFR-2 (Homo sapiens)
Test: VEGFR-2 kinase inhibition, Caliper screening (fluorescent substrate phosphorylation, electrophoretic separation)
Conditions: concentration 3.0E−06 (unit not given)
endpoint label: VEGFR-2 AVG % Activity at Specific Concentration (%)
Quick note: give the figure in %, leave out the unit.

Any idea what VEGFR-2 AVG % Activity at Specific Concentration was measured for COCCOCCOCCOCCOCCOCCOCCOCCOCCNC(=O)c1c(C)[nH]c(/C=C2\C(=O)Nc3ccc(F)cc32)c1C [mPEG9-semaxanib] ?
8

What would you report for COCCOCCOCCNC(=O)c1c(C)[nH]c(/C=C2\C(=O)Nc3ccc(F)cc32)c1C [mPEG3-semaxanib] ?
−3

Another compound: COCCOCCOCCOCCNC(=O)c1c(C)[nH]c(/C=C2\C(=O)Nc3ccc(F)cc32)c1C [mPEG4-semaxanib]
−4

Proceed to COCCOCCOCCOCCOCCOCCOCCNC(=O)c1c(C)[nH]c(/C=C2\C(=O)Nc3ccc(F)cc32)c1C [mPEG7-semaxanib]
0

And the next one, COCCOCCOCCOCCOCCOCCOCCOCCNC(=O)c1c(C)[nH]c(/C=C2\C(=O)Nc3ccc(F)cc32)c1C [mPEG8-semaxanib] ?
2

###

Measured IC50 on c-Kit (Homo sapiens, UniProt P10721) follows.
Sequence (P10721 26-976): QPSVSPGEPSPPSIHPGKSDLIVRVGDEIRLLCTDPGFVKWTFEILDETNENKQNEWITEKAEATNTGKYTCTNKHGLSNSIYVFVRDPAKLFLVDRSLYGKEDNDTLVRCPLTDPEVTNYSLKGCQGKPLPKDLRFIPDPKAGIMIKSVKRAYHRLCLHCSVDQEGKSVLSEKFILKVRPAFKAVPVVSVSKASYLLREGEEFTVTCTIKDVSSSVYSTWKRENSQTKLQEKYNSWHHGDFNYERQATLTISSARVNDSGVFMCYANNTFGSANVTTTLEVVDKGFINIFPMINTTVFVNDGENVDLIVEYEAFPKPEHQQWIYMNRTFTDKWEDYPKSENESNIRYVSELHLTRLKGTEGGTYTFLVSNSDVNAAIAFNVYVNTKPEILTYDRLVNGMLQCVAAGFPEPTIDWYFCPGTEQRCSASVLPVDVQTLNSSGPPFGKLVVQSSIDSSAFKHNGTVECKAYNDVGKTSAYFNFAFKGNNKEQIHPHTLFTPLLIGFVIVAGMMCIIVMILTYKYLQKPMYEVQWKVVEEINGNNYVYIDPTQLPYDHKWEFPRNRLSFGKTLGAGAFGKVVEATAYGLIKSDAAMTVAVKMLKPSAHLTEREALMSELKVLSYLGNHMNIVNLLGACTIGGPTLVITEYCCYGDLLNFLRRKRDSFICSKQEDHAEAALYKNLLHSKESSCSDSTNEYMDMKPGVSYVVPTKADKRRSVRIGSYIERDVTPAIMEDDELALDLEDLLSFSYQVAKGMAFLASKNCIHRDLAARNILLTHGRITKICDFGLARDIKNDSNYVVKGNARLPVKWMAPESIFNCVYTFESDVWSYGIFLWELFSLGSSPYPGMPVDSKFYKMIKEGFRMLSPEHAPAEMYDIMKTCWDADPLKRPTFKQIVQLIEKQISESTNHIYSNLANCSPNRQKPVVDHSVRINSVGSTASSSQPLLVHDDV
A complete answer gives the number followed by the unit.

Which value of IC50 has been reported for COCCOCCOCCOCCOCCNC(=O)c1c(C)[nH]c(/C=C2\C(=O)Nc3ccc(F)cc32)c1C [mPEG5-semaxanib] in the records?
230 nM

Follow-up item: COCCOCCOCCOCCOCCOCCNC(=O)c1c(C)[nH]c(/C=C2\C(=O)Nc3ccc(F)cc32)c1C [mPEG6-semaxanib]
290 nM

// same read-out, input: COCCOCCOCCOCCOCCOCCOCCOCCNC(=O)c1c(C)[nH]c(/C=C2\C(=O)Nc3ccc(F)cc32)c1C [mPEG8-semaxanib]
300 nM

Entry to check: COCCOCCOCCNC(=O)c1c(C)[nH]c(/C=C2\C(=O)Nc3ccc(F)cc32)c1C [mPEG3-semaxanib]
120 nM

###

Target: RET (Homo sapiens)
Sequence (P07949 29-1114, species assumed): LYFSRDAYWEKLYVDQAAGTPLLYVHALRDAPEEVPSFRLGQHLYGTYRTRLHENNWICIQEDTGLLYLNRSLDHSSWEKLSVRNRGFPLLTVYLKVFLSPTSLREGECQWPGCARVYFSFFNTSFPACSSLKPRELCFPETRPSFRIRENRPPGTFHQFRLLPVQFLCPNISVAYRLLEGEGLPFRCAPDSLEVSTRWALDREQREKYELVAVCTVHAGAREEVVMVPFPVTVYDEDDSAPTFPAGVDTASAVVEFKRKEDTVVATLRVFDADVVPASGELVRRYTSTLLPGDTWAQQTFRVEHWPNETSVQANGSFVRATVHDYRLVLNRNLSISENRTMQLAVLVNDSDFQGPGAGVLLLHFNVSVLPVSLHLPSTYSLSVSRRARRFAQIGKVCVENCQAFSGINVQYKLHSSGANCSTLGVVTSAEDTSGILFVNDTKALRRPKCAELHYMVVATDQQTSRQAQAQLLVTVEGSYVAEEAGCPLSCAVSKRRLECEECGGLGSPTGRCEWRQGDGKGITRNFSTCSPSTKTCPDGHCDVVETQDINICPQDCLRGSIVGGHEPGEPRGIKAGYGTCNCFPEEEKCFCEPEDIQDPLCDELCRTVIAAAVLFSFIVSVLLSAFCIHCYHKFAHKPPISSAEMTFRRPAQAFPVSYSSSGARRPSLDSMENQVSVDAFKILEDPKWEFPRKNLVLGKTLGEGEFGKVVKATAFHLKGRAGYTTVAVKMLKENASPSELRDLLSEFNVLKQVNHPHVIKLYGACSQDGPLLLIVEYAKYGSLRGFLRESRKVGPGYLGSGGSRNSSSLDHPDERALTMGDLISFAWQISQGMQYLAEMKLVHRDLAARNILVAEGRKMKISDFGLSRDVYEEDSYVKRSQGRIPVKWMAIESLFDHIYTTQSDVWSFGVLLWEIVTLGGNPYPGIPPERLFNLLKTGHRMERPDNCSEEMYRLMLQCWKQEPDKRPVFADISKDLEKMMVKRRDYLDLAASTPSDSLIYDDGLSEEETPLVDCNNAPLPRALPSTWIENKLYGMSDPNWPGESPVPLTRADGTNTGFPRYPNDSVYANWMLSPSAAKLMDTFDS
Experiment: RET kinase inhibition, Caliper screening (fluorescent substrate phosphorylation, electrophoretic separation)
Details: concentration 1.0E−06 (unit not given)
Please respond with reported RET AVG % Activity at Specific Concentration for every item in the list.
Reply with just the number (in %).

// map `COCCOCCOCCOCCOCCNC(=O)c1c(C)[nH]c(/C=C2\C(=O)Nc3ccc(F)cc32)c1C` to recorded RET AVG % Activity at Specific Concentration (system: RET (Homo sapiens))
29

Field entry: `COCCOCCOCCOCCOCCOCCOCCOCCOCCNC(=O)c1c(C)[nH]c(/C=C2\C(=O)Nc3ccc(F)cc32)c1C`
49

Try this compound too: `COCCOCCOCCOCCOCCOCCOCCNC(=O)c1c(C)[nH]c(/C=C2\C(=O)Nc3ccc(F)cc32)c1C`
38

`COCCOCCOCCOCCOCCOCCOCCOCCNC(=O)c1c(C)[nH]c(/C=C2\C(=O)Nc3ccc(F)cc32)c1C` , same question.
52

Repeat for the following compound: `COCCOCCOCCNC(=O)c1c(C)[nH]c(/C=C2\C(=O)Nc3ccc(F)cc32)c1C`
12

Queued: `COCCOCCOCCOCCNC(=O)c1c(C)[nH]c(/C=C2\C(=O)Nc3ccc(F)cc32)c1C`
22

###

Biological target: c-Kit (Homo sapiens)
Assay: c-Kit tyrosine kinase inhibition, Caliper screening (fluorescent substrate phosphorylation, electrophoretic separation)
Format: biochemical
Details: concentration 1.0E−08 (unit not given)
endpoint label: c-Kit AVG % Activity at Specific Concentration (%)
Hi! Could you send only the number? It should be in %, unit omitted.

Could you tell me which c-Kit AVG % Activity at Specific Concentration is on file for `COCCOCCOCCOCCOCCOCCOCCNC(=O)c1c(C)[nH]c(/C=C2\C(=O)Nc3ccc(F)cc32)c1C` ?
96

Repeat with `COCCOCCOCCOCCOCCOCCOCCOCCNC(=O)c1c(C)[nH]c(/C=C2\C(=O)Nc3ccc(F)cc32)c1C`
97

Param item: `COCCOCCOCCOCCOCCOCCOCCOCCOCCNC(=O)c1c(C)[nH]c(/C=C2\C(=O)Nc3ccc(F)cc32)c1C`
102

// query: `COCCOCCOCCOCCNC(=O)c1c(C)[nH]c(/C=C2\C(=O)Nc3ccc(F)cc32)c1C`
97

For `COCCOCCOCCNC(=O)c1c(C)[nH]c(/C=C2\C(=O)Nc3ccc(F)cc32)c1C` then?
97

Now the same for `COCCOCCOCCOCCOCCOCCNC(=O)c1c(C)[nH]c(/C=C2\C(=O)Nc3ccc(F)cc32)c1C`
94

Cool, now `COCCOCCOCCOCCOCCNC(=O)c1c(C)[nH]c(/C=C2\C(=O)Nc3ccc(F)cc32)c1C`
106
